target: Glucocorticoid receptor (Homo sapiens); assay: GR-EFC Redistribution (AID 451); details: CHO-K1 GR-EFC translocation, beta-gal luminescence, 2 h; further: potency means the concentration at half of the fitted maximal effect
Calls of active or inactive are those of the source. The call rests on the fitted dose curve.
The following compounds are shown together with reported Potency values.

{"columns": ["SMILES_REPR", "READOUT_VALUE"],
 "data": [
  ["CC(=O)NC1=C(OS(=O)(=O)c2ccc(C)cc2)CN(C)C1=O", "> 9.22 µM (inactive)"],
  ["CCOC(=O)CCCN", "> 9.22 µM (inactive)"],
  ["N[C@@H](Cc1cccnn1)C(=O)O", "> 9.22 µM (inactive)"],
  ["COc1c2c(nc3ccccc13)O[C@@H]([C@@](C)(O)CO)C2", "> 46 µM (inactive)"],
  ["CCCCSCc1nc2nc(Cl)c(Cl)nc2[nH]1", "> 9.22 µM (inactive)"]
]}

input: Name the reported Potency value associated with the compound O=C(O)c1cc(-c2ccc3cc4c(cc3c2)OCO4)nc2ccccc12
output: > 9.22 µM (inactive)

input: Also check COc1ccccc1CCn1c(=O)c(-c2ccccc2)nc2cncnc21
output: > 46 µM (inactive)

input: Also check C[C@]12CC[C@H]3c4ccc(O)cc4CC[C@@H]3[C@H]1CC[C@@H]2OC(=O)CCc1ccccc1
output: > 9.22 µM (inactive)

input: Also check O=C1c2ccccc2C(=O)c2c(NC3CCCCC3)ccc(Nc3ccc(S(=O)(=O)O)cc3)c21
output: > 9.22 µM (inactive)

input: Also check CN(Cc1cc(Br)cc(Br)c1O)Cc1c(O)ccc2ccccc12
output: > 9.22 µM (inactive)

input: Also check CC1(C)[C@@H]2CC[C@]1(CC(=O)O)[C@H](Cl)C2
output: > 9.22 µM (inactive)

* * *

test: NFAT Signaling Pathway (AID 444); conditions: Jurkat NFAT-bla M1, carbachol, beta-lactamase ratio, 5 h; at 7.69 µM (top of the series) unless noted;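 further: carbachol stimulus at about its EC50 of 1 µM final; on the % scale 0 is the no-effect control and ±100 the full control effect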
Results filed as inconclusive are left out. Active and inactive are the calls of the source. Calls come from the whole dose curve; as a rule, active = well fitted curve in either direction with a large enough effect (not every such curve was filed as active); inconclusive = small, poorly fitted or top-dose-only effect, or another doubt; inactive = flat fitted curve, though single readings scatter.
The following molecules are shown together with reported activity change, negative = inhibition values.

Would you please look over these solved cases?
{"columns": ["MOLECULE", "activity change, negative = inhibition"],
 "data": [
  ["O=C(O)/C(Cc1ccnc2ccccc12)=N\\O", "0.364% (inactive)"],
  ["CC(C)(C)CNCCO", "4.1% (inactive)"],
  ["Nc1nc(SCc2ccccn2)c2ncn(C3CCCC3)c2n1", "9.85% (inactive)"],
  ["CC(C)=N[C@H](C(=O)O)C(C)(C)S", "3.46% (inactive)"],
  ["NCCCc1c(-c2ccccc2)nc(N)[nH]c1=O", "4.17% (inactive)"]
]}

input: Name the reported activity change, negative = inhibition value associated with the molecule O=C(O)c1[nH]c2c([N+](=O)[O-])cc([N+](=O)[O-])cc2c1C(=O)O
output: 2.5% (inactive)

input: Also check O=[N+]([O-])c1ccc2c(c1)Cc1cc(N=Cc3ccc4c(c3)OCO4)ccc1-2
output: -8.54% (inactive)

input: Also check C[C@@]12C=CC(=O)C=C1CC[C@@H]1C2=CC[C@]2(C)[C@@H]1CC[C@H]2C(=O)CN1CCN(c2cc(N3CCCC3)nc(N3CCCC3)n2)CC1
output: -21.1% [at 38 µM] (inactive)

input: Also check O=C(O)C1(Nc2ccc(Cl)cc2)CCCC1
output: 7.56% (inactive)

input: Also check CN(C)S(=O)(=O)c1nc(Cl)c2[nH]cnc2n1
output: 17.4% (inactive)

input: Also check S=C(S)NCCCn1ccnc1
output: -2.39% (inactive)
